Test system: ragweed (common ragweed, Ambrosia elatior)
Assay: Test B pre-/postemergence plant response
Assay type: in vivo
Details: 62 g ai/ha, postemergence; 0 is no effect, 100 is complete control; 13 to 15 days
The following molecules are listed with their measured Ragweed plant response rating (0 to 100 scale) values.
Keep it simple and answer with nothing but the number.

Recorded Ragweed plant response rating (0 to 100 scale), per entry:
MOLECULE	TESTED_ON	ENDPOINT_VALUE
CCCCn1c(-c2cc(F)cc(F)c2)ncc(C(=O)C2=C(O)CCCC2=O)c1=O	ragweed (common ragweed, Ambrosia elatior)	85
CCCn1c(-c2ccc(F)cc2)ncc(C(=O)C2=C(O)CCCC2=O)c1=O	ragweed (common ragweed, Ambrosia elatior)	80

Q) Recorded Ragweed plant response rating (0 to 100 scale) for COCCn1c(-c2cccc(F)c2)ncc(C(=O)C2=C(O)CCCC2=O)c1=O , please?
A) 85

Q) Recorded Ragweed plant response rating (0 to 100 scale) for CCCc1ncc(C(=O)C2=C(O)CCCC2=O)c(=O)n1CC1CCCO1 (stereo not shown) , please?
A) 75
